Test system: 252836-082-R-J2-PDC tumor spheroids, viability
Method description: Anticancer human tumor 252836-082-R-J2-PDC patient-derived head and neck squamous cell carcinoma cell line growth inhibition [PI3K]
Protocol conditions: second compound 0.316 µM; first compound 0.0316 µM; active compounds read low; spheroids with HUVEC and MSC
Definition: the class of an entry is the range in low value = under 40%, medium value = from 40% up to 60%, high value = 60% and over that contains its viability, T/C.

[[record]]
compound = "CC(=O)c1c(C)c2cnc(Nc3ccc(N4CCNCC4)cn3)nc2n(C2CCCC2)c1=O + CC(Nc1ccc2c(c1)OCCn1cc(N3C(=O)OCC3C(F)F)nc1-2)C(N)=O"
label_value = "high value"

[[record]]
compound = "CC(C)n1nc(-c2ccc3oc(N)nc3c2)c2c(N)ncnc21 + COc1c(OCCCN2CCOCC2)ccc2c3n(c(=NC(=O)c4cnc(N)nc4)nc12)CCN3"
label_value = "low value"

[[record]]
compound = "C[C@@H](NC(=O)c1ncnc(N)c1Cl)c1ncc(C(=O)Nc2cc(C(F)(F)F)c(Cl)cn2)s1 + CC(Nc1ccc2c(c1)OCCn1cc(N3C(=O)OCC3C(F)F)nc1-2)C(N)=O"
label_value = "high value"

[[record]]
compound = "CC(Cn1ccc(-c2ccc(C#N)c(Cl)c2)n1)NC(=O)c1cc(C(C)O)[nH]n1 (stereo unspecified) + COc1c(OCCCN2CCOCC2)ccc2c3n(c(=NC(=O)c4cnc(N)nc4)nc12)CCN3"
label_value = "low value"

[[record]]
compound = "Cn1ncc(Cl)c1-c1cc(C(=O)NC(CN)Cc2cccc(F)c2)sc1Cl (stereo unspecified) + CC(Nc1ccc2c(c1)OCCn1cc(N3C(=O)OCC3C(F)F)nc1-2)C(N)=O"
label_value = "medium value"

[[record]]
compound = "Cn1nccc1Nc1nccc(-c2ccn(C(CO)c3ccc(Cl)c(F)c3)c(=O)c2)n1 (stereo unspecified) + COc1c(OCCCN2CCOCC2)ccc2c3n(c(=NC(=O)c4cnc(N)nc4)nc12)CCN3"
label_value = "low value"

[[record]]
compound = "Cn1nccc1Nc1nccc(-c2ccn(C(CO)c3ccc(Cl)c(F)c3)c(=O)c2)n1 (stereo unspecified) + CC(Nc1ncnc2nc[nH]c12)c1cc2cccc(Cl)c2c(=O)n1-c1ccccc1"
label_value = "high value"

[[record]]
compound = "Cn1ncc(Cl)c1-c1cc(C(=O)NC(CN)Cc2cccc(F)c2)sc1Cl (stereo unspecified) + CC(Nc1ncnc2nc[nH]c12)c1cc2cccc(Cl)c2c(=O)n1-c1ccccc1"
label_value = "high value"

[[record]]
compound = "C#Cc1c(F)ccc2cc(O)cc(-c3ncc4c(N5CC6CCC(C5)N6)nc(OCC56CCCN5CC(F)C6)nc4c3F)c12 (stereo unspecified) + CC(Nc1ccc2c(c1)OCCn1cc(N3C(=O)OCC3C(F)F)nc1-2)C(N)=O"
label_value = "medium value"

[[record]]
compound = "CNC(=O)c1ccc(N2C(=S)N(c3ccc(C#N)c(C(F)(F)F)c3)C(=O)C2(C)C)cc1F + CC(Nc1ccc2c(c1)OCCn1cc(N3C(=O)OCC3C(F)F)nc1-2)C(N)=O"
label_value = "medium value"


---

Listing: viability, T/C of selected compounds
System: 252836-082-R-J2-PDC tumor spheroids, viability
Method description: Anticancer human tumor 252836-082-R-J2-PDC cell line growth inhibition [PI3K];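 also: spheroids exposed to agents for seven days before readout; percent of vehicle DMSO control viability so 100% = untreated growth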
Protocol conditions: second compound 0.316 µM; first compound 0.0316 µM; active compounds read low; spheroids with HUVEC and MSC
From the text: Combinatorial screen of targeted agents with the PI3K inhibitors inavolisib, alpelisib, duvelisib, and copanlisib in multi-cell type tumor spheroids A high-throughput screen of multi-cell type tumor spheroids was designed to identify active combinations of targeted small molecules and PI3K pathway inhibitors. […] Compounds. […] If the clinical Cmax for an agent had not been determined, the highest concentration tested was 10 microM. […]
Measured attribute: viability, T/C (%)

[[record]]
compound = "CC1(C)CCC(Nc2ncc(C(F)(F)F)c(-c3c[nH]c4c(P(C)(C)=O)c(C#N)ccc34)n2)CN1 (stereo not given) + COc1c(OCCCN2CCOCC2)ccc2c3n(c(=NC(=O)c4cnc(N)nc4)nc12)CCN3"
reported = 8.82

[[record]]
compound = "CC1(C)CCC(CN2CCN(c3ccc(C(=O)NS(=O)(=O)c4ccc(NCC5CCOCC5)c([N+](=O)[O-])c4)c(Oc4cnc5[nH]ccc5c4)c3)CC2)=C(c2ccc(Cl)cc2)C1 + CC(Nc1ncnc2nc[nH]c12)c1cc2cccc(Cl)c2c(=O)n1-c1ccccc1"
reported = 92.5

[[record]]
compound = "C[C@@H](NC(=O)c1ncnc(N)c1Cl)c1ncc(C(=O)Nc2cc(C(F)(F)F)c(Cl)cn2)s1 + Cc1nc(NC(=O)N2CCCC2C(N)=O)sc1-c1ccnc(C(C)(C)C(F)(F)F)c1"
reported = 72

[[record]]
compound = "CCN1CCN(Cc2ccc(Nc3ncc(F)c(-c4cc(F)c5nc(C)n(C(C)C)c5c4)n3)nc2)CC1 + Cc1nc(NC(=O)N2CCCC2C(N)=O)sc1-c1ccnc(C(C)(C)C(F)(F)F)c1"
reported = 64.7

[[record]]
compound = "CC(C)NCC(C(=O)N1CCN(c2ncnc3c2C(C)CC3O)CC1)c1ccc(Cl)cc1 (stereo not given) + Cc1nc(NC(=O)N2CCCC2C(N)=O)sc1-c1ccnc(C(C)(C)C(F)(F)F)c1"
reported = 70.3

